Where these numbers come from: patent US8389555B2

Catalogue of compounds with associated Selectivity Ki(D2)/Ki(D3)
Biological target: human dopamine D3 receptors (Homo sapiens)
Construct: expressed in transfected cells
Sequence (P35462 whole entry): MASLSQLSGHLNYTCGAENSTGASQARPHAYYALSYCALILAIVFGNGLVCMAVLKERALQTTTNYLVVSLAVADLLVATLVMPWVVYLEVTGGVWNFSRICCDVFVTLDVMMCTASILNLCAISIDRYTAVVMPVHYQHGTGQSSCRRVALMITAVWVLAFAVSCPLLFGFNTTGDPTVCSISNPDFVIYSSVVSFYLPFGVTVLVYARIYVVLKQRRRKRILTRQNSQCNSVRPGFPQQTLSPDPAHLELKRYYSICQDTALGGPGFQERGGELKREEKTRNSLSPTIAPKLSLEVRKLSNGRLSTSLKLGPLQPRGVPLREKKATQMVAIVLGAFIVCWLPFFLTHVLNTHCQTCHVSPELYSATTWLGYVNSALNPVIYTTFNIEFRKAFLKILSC
Experiment: Dopamine D3 receptor binding assay ([3H]spiperone, CHO cell membranes)
Conditions: ratio of Ki(D2) to Ki(D3)

| COMPOUND | Selectivity Ki(D2)/Ki(D3) |
| --- | --- |
| CCCN(Cc1ccc(C(=O)NC2Cc3ccccc3C2)cc1)C1CCc2ncsc2C1 (stereo not shown) | 19 |
| CCCN(CCCCNC(=O)C=Cc1ccc(Cl)cc1Cl)C1CCc2ncsc2C1 (stereo not shown) | 184 |
| CCCN(CCCCNC(=O)N1CCC(c2ccccc2)CC1)C1CCc2ncsc2C1 (stereo not shown) | 435 |
| O=C(NCCCCNC1CCc2ncsc2C1)c1cc2ccccc2s1 (stereo not shown) | 80 |
| CN(CCCCNC(=O)c1ccc2ccccc2c1)C1CCc2ncsc2C1 (stereo not shown) | 151 |
| CCCN(CCCCN1CCN(c2cccc(Cl)c2Cl)CC1)C1CCc2ncsc2C1 (stereo not shown) | 7 |
| CCCN(CCCCNC(=O)C=Cc1ccccc1)C1CCc2ncsc2C1 (stereo not shown) | 495 |
| C=CCN(CCCCNC(=O)c1ccc2ccccc2c1)C1CCc2ncsc2C1 (stereo not shown) | 486 |
| CCCN(CCCN1CCN(c2cccc(Cl)c2Cl)CC1)C1CCc2ncsc2C1 (stereo not shown) | 4 |
| CCN(CCNC(=O)c1ccc2ccccc2c1)C1CCc2ncsc2C1 (stereo not shown) | 38 |
| CCCN(CCN1CCN(c2cccc(Cl)c2Cl)CC1)C1CCc2ncsc2C1 (stereo not shown) | 2 |
| CC#CCN(CCCCNC(=O)c1ccc2ccccc2c1)C1CCc2ncsc2C1 (stereo not shown) | 77 |
| CCCN(CCCCNC(=O)C1CCc2ccccc2C1)C1CCc2ncsc2C1 (stereo not shown) | 1262 |
| CCCN(CCCCNC(=O)c1ccccc1)C1CCc2ncsc2C1 (stereo not shown) | 746 |
| CCCN(CCCCNC(=O)C1CCCCC1)C1CCc2ncsc2C1 (stereo not shown) | 582 |
| CCCN(CCCCNC(=O)N1CCc2ccccc2C1)C1CCc2ncsc2C1 (stereo not shown) | 394 |
| CCN(CCCCNC(=O)c1ccc2ncsc2c1)C1CCc2ncsc2C1 (stereo not shown) | 375 |
| CCN(CCCCN1CCN(c2ccccc2OC)CC1)C1CCc2ncsc2C1 (stereo not shown) | 8.7 |
| CCCN(CCCCC(=O)NC12CC3CC(CC(C3)C1)C2)C1CCc2ncsc2C1 (stereo not shown) | 297 |
| CCCN(CCCCNC(=O)C1Cc2ccccc2C1)C1CCc2ncsc2C1 (stereo not shown) | 1189 |
| CCCN(CCCCNC(=O)N1Cc2ccccc2C1)C1CCc2ncsc2C1 (stereo not shown) | 1422 |
| CCCN(CCCCNC(=O)c1ccc2ccccc2c1)C1CCc2ncsc2C1 (stereo not shown) | 751 |
| CCCN(Cc1ccc(C(=O)N(CCC)C2CCc3ncsc3C2)cc1)C1CCc2ncsc2C1 (stereo not shown) | 26 |
| CCCN(CCCCNC(=O)NC1Cc2ccccc2C1)C1CCc2ncsc2C1 (stereo not shown) | 649 |
| CCN(CCN(CC)C1CCc2ncsc2C1)C1CCc2ncsc2C1 (stereo not shown) | 19 |
